- Test system: MDA-MB-435
- test_name: Reversal of vinblastine resistance in multidrug resistant MDA435/LCC6 cells by MTS assay
- Format: functional, cell-based
- experimental_parameters: Homo sapiens
Quick reference for IC50 among some compounds

- compound: "COc1ccc(CCN(C)CCCC(C#N)(c2ccc(OC)c(OC)c2)C(C)C)cc1OC (centres undefined)"
  IC50 (nM): 0.25
- compound: "O=c1cc(-c2ccc(OCCOCCOCCOc3ccc(-c4cc(=O)c5c(O)cc(O)cc5o4)cc3)cc2)oc2cc(O)cc(O)c12"
  IC50 (nM): 0.87
- compound: "O=c1cc(-c2ccc(OCCOCCOCCOCCOc3ccc(-c4cc(=O)c5c(O)cc(O)cc5o4)cc3)cc2)oc2cc(O)cc(O)c12"
  IC50 (nM): 0.36
- compound: "O=c1cc(-c2ccc(OCCOCCOc3ccc(-c4cc(=O)c5c(O)cc(O)cc5o4)cc3)cc2)oc2cc(O)cc(O)c12"
  IC50 (nM): 0.61

Where do these numbers come from? They come from ChEMBL document CHEMBL1137344.
